Source of measurements: paper PMC9311539

tested on: VRE; experiment: MIC, broth microdilution, clinical isolates: VRE; assay type: cell-based, vancomycin-resistant Enterococcus; conditions: Enterococcus, VRE; 46 clinical isolates; read-out: MIC50
# MIC50 annotations
Readout Kind: MIC50

* CO[C@@H](C(N)=O)[C@H](NC(=O)c1ccc(NC(=O)c2ccc([N+](=O)[O-])cc2)cc1)C(=O)Nc1ccc(C(=O)Nc2ccc(C(=O)Nc3ccc(C(=O)O)cc3OC(C)C)c(O)c2OC(C)C)cc1 [DH-coralmycin A] | 4 µg/mL
* CC(=O)NC[C@H]1CN(c2ccc(N3CCOCC3)c(F)c2)C(=O)O1 [Linezolid] | 2 µg/mL
* C[C@@H](O)[C@H]1C(=O)N2C(C(=O)O)=C(S[C@@H]3CN[C@H](C(=O)N(C)C)C3)[C@H](C)[C@H]12 [Meropenem] | > 32 µg/mL
* CNC(C)C1CCC(N)C(OC2C(N)CC(N)C(OC3OCC(C)(O)C(NC)C3O)C2O)O1 (stereo not shown) [Gentamicin] | > 32 µg/mL
* C[C@H]1COc2c(N3CCN(C)CC3)c(F)cc3c(=O)c(C(=O)O)cn1c23 [Levofloxacin] | > 32 µg/mL
* CO[C@@]1(NC(=O)Cc2cccs2)C(=O)N2C(C(=O)O)=C(COC(N)=O)CS[C@@H]21 [Cefoxitin] | > 32 µg/mL
* CO[C@@H](C(N)=O)[C@H](NC(=O)c1ccc(NC(=O)c2ccc([N+](=O)[O-])cc2)cc1)C(=O)Nc1ccc(C(=O)Nc2ccc(C(=O)Nc3ccc(C(=O)O)c(O)c3OC(C)C)c(O)c2OC(C)C)cc1 [Coralmycin A, coralmycin A] | 0.5 µg/mL
